The measurements presented in this section are drawn from ChEMBL document CHEMBL1122076.

PROTOCOL NOTES: Evaluated for the pKa value.
Assay type: physicochemical
PARAMETER MEASURED: pKa
Answer as a number with no unit attached.

Worked examples, 4 compounds total:
{"columns": ["COMPOUND", "pKa"],
 "data": [
  ["COc1cc2c(cc1OC)NC(N)=NC2", 11.1],
  ["NC1=NCc2cc(O)c(O)cc2N1", 12],
  ["NC1CCc2cc(O)c(O)cc2C1 (stereo not given)", 9.84],
  ["NCCc1ccc(O)c(O)c1", 9.84]
]}

From here, focus on the item given below.
For NC1CCc2c(ccc(O)c2O)C1 (stereo not given) , write its pKa.
9.84
